# Test system: T47D cells
# assay-explanation: Cellular growth inhibition assay for T47D cells, CellTiter-Glo
# Format: cell-based, human
# test-context: Homo sapiens, 72 hours treatment, CellTiter-Glo 2.0
assay-readout: GI50

Example entries and their recorded answers appear below.
compound	observed-value
CCS(=O)(=O)c1ccc(Oc2ccc(OC3CC4(C3)CN(c3ccc(C(=O)N[C@H]5CC[C@H](Oc6ccc(C#N)c(Cl)c6)CC5)nn3)C4)c(F)c2)c(-c2cn(C)c(=O)c3[nH]ccc23)c1 [I-44]	< 500 nM
Cn1cc(-c2cc(C3CCCS3(=O)=O)ccc2Oc2ccc(CCC3CCN(c4ccc(C(=O)NC5CCC(Oc6ccc(C#N)c(Cl)c6)CC5)nn4)CC3)cc2)c2cc[nH]c2c1=O (centres unmarked) [I-252]	500 to 1500 nM
CCS(=O)(=O)c1ccc(Oc2cccc(CCCOC3CC4(C3)CN(c3cnc(C(=O)N[C@H]5CC[C@H](Oc6ccc(C#N)c(Cl)c6)CC5)cn3)C4)c2F)c(-c2cn(C)c(=O)c3[nH]ccc23)c1 [I-48]	< 500 nM
Cn1cc(-c2cc(C(C)(C)O)ccc2Oc2ccc(N3CC(OC4CN(c5ccc(C(=O)N[C@H]6CC[C@H](Oc7ccc(C#N)c(Cl)c7)CC6)nn5)C4)C3)cc2)c2cc[nH]c2c1=O [I-150]	< 500 nM

Item Cn1cc(-c2cc(C(C)(C)O)ccc2Oc2ccc(CCOC3CCN(c4ccc(C(=O)N[C@H]5CC[C@H](Oc6ccc(C#N)c(Cl)c6)CC5)nn4)CC3)c(F)c2)c2cc[nH]c2c1=O [I-132] was tested on T47D cells; the reported GI50 is < 500 nM
